Source listed as paper PMC11546339.

assay: Pharmacokinetic study in mice (plasma and brain); assay type: in vivo; details: male, C57BL/6, mouse, ip, 3 mg/kg i.p., assuming density of brain tissue 1 g/mL, read-out: maximum concentration in brain (Cmax,br)
Where a SMILES comes first, the peptide text is derived from it. Bridges are numbered along the chain shown (N, C = ends). [ ]: non-standard residue; d: D form. 2Abz = Nc1ccccc1C(=O)O; Dap = NC[C@H](N)C(=O)O
observable: Cmax (nM)
Numbers only, in nM.

[ask] Requested read-out: Cmax. Entry: C[C@@H](O)[C@@H]1NC(=O)[C@H](CNC(=O)c2ccccc2N)NC(=O)[C@H](NC(=O)[C@@H](N)Cc2ccc(O)cc2)CCCCNC(=O)CNC1=O [CycloAnt] (H-Y[dK][Dap](2Abz)TG; lactam 2-C)
[reply] 70

----------
target: mouse DOR (Mus musculus)
Sequence (P32300 whole entry): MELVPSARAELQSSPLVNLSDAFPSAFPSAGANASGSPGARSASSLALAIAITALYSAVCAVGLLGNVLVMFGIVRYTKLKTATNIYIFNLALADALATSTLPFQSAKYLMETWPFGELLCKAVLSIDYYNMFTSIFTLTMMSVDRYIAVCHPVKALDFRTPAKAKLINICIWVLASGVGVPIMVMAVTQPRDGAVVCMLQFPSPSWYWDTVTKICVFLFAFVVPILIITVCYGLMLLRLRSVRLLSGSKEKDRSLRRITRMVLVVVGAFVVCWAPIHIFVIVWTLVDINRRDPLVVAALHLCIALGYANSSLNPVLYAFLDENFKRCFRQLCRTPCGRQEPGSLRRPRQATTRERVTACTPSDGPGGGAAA
Where a SMILES comes first, the peptide text is derived from it. Bridges are numbered along the chain shown (N, C = ends). [ ]: non-standard residue; d: D form. 2Abz = Nc1ccccc1C(=O)O; Dap = NC[C@H](N)C(=O)O
observable: Ki (nM)
Give bare numbers, in nM.

[ask] Requested read-out: Ki. Entry: C[C@@H](O)[C@@H]1NC(=O)[C@H](CNC(=O)c2ccccc2N)NC(=O)[C@H](NC(=O)[C@@H](N)Cc2ccc(O)cc2)CCCCNC(=O)CNC1=O [CycloAnt] (H-Y[dK][Dap](2Abz)TG; lactam 2-C)
[reply] 7.85

----------
experiment: Pharmacokinetic study in mice (plasma and brain); format: in vivo; conditions: male, C57BL/6, mouse, whole blood, ip, 3 mg/kg i.p., read-out: time of maximum concentration in blood (converted)
Where a SMILES comes first, the peptide text is derived from it. Bridges are numbered along the chain shown (N, C = ends). [ ]: non-standard residue; d: D form. 2Abz = Nc1ccccc1C(=O)O; Dap = NC[C@H](N)C(=O)O
observable: Tmax (min)
Give bare numbers, in min.

[ask] Requested read-out: Tmax. Entry: C[C@@H](O)[C@@H]1NC(=O)[C@H](CNC(=O)c2ccccc2N)NC(=O)[C@H](NC(=O)[C@@H](N)Cc2ccc(O)cc2)CCCCNC(=O)CNC1=O [CycloAnt] (H-Y[dK][Dap](2Abz)TG; lactam 2-C)
[reply] 15

----------
experiment: Pharmacokinetic study in mice (plasma and brain); assay type: in vivo; conditions: male, C57BL/6, mouse, plasma, ip, 3 mg/kg i.p., read-out: maximum concentration in mouse plasma (Cmax,pl)
Where a SMILES comes first, the peptide text is derived from it. Bridges are numbered along the chain shown (N, C = ends). [ ]: non-standard residue; d: D form. 2Abz = Nc1ccccc1C(=O)O; Dap = NC[C@H](N)C(=O)O
observable: Cmax (ng/mL)
Numbers only, in ng/mL.

[ask] Requested read-out: Cmax. Entry: C[C@@H](O)[C@@H]1NC(=O)[C@H](CNC(=O)c2ccccc2N)NC(=O)[C@H](NC(=O)[C@@H](N)Cc2ccc(O)cc2)CCCCNC(=O)CNC1=O [CycloAnt] (H-Y[dK][Dap](2Abz)TG; lactam 2-C)
[reply] 411

----------
experiment: Stability in mouse serum; type: in vitro ADME; conditions: 37 °C, read-out: percentage of CycloAnt remaining in mouse serum
Where a SMILES comes first, the peptide text is derived from it. Bridges are numbered along the chain shown (N, C = ends). [ ]: non-standard residue; d: D form. 2Abz = Nc1ccccc1C(=O)O; Dap = NC[C@H](N)C(=O)O
observable: remaining at 8 h, 20 µM (%)
One number for each entry, in %.

[ask] Requested read-out: remaining at 8 h, 20 µM. Entry: C[C@@H](O)[C@@H]1NC(=O)[C@H](CNC(=O)c2ccccc2N)NC(=O)[C@H](NC(=O)[C@@H](N)Cc2ccc(O)cc2)CCCCNC(=O)CNC1=O [CycloAnt] (H-Y[dK][Dap](2Abz)TG; lactam 2-C)
[reply] 82.3
